// data source = patent EP1935986B1

Provide the recorded light emission values for the entries that follow.
- SUBJECT OF TEST: QuantiLum Luciferase (Photinus pyralis, UniProt P08659)
- Construct: purchased Promega Corporation E170
- Sequence (P08659 whole entry): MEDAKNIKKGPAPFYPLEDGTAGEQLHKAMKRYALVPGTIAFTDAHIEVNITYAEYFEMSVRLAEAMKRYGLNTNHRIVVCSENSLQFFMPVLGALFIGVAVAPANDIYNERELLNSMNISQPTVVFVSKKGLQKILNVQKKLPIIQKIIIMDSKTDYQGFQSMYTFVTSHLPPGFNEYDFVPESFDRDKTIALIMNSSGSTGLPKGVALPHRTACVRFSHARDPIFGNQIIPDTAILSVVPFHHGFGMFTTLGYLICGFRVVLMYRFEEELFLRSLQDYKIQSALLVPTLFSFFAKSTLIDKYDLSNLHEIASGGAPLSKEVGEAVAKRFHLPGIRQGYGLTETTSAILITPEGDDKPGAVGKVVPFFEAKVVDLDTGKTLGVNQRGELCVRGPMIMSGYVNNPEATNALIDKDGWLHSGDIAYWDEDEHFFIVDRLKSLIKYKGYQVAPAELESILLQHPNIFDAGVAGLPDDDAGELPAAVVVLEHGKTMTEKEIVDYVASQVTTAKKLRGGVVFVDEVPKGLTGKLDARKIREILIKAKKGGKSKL
- TEST DESCRIPTION: Scaffolds: light emission of luciferin derivatives with QuantiLum luciferase alone, + Co A, + DTT, + Co A and DTT
- Assay type: biochemical, firefly
- DETAILS: Derivative Conc. 50; Alone
Answers are plain numbers.

Look up and state reported light emission values for O=C(O)[C@H]1CSC(c2nc3ccc(OCc4ccccc4)cc3s2)=N1 [luciferin 6-benzyl ether, reference compound] 30609

Batch: light emission values for all items listed.
1. CN(Cc1ccccc1)c1ccc2nc(C3=NC(C(=O)O)CS3)sc2c1 (stereo not drawn) [methylbenzylaminoluciferin]
2. COc1ccc2nc(C3=N[C@@H](C(=O)O)CS3)sc2c1 [luciferin 6-methyl ether, D-luciferin 6' methyl ether, reference compound]

[73867336, 2690]
